- Tested on: TNF-α
- ASSAY_COMMENT: LPS-induced TNF-α production in RAW 264.7 cells (ELISA)
- Assay type: cell-based, mouse
- ASSAY_CONTEXT: 1 μM; LPS-challenged RAW 264.7 cells; percentage of vehicle control value (control = 100%); mean ± S.E.M., n = 3
Catalogue of TNF-α % Δ readings, one per entry.
MEASURE_NAME: TNF-α % Δ (%)

INSERT INTO results (compound, experimental_value) VALUES
  ('C[C@@H]1[C@@H](N2C(=O)c3c(F)ccc(F)c3C2=O)C[C@H]2C[C@@H]1C2(C)C', 101),
  ('CC1(C)[C@H]2CC[C@@H](CN3C(=O)c4c(F)ccc(F)c4C3=O)[C@@H]1C2', 102),
  ('O=C1c2c(F)ccc(F)c2C(=O)N1C1CC2CCC1C2 (stereo not shown) [Compound 22]', 102),
  ('CC1(C)[C@@H]2CC[C@@]1(C)[C@@H](N1C(=O)c3c(F)c(F)c(F)c(F)c3C1=O)C2', 55);

----------
- Tested on: TNF-α
- ASSAY_COMMENT: LPS-induced TNF-α production in RAW 264.7 cells (ELISA)
- Assay type: cell-based, mouse
- ASSAY_CONTEXT: 10 μM; LPS-challenged RAW 264.7 cells; percentage of vehicle control value (control = 100%); mean ± S.E.M., n = 3
Catalogue of TNF-α % Δ readings, one per entry.
MEASURE_NAME: TNF-α % Δ (%)

INSERT INTO measurements (compound, readout_unit, experimental_value) VALUES
  ('CC1(C)[C@H]2CC[C@@H](CN3C(=O)c4c(F)ccc(F)c4C3=O)[C@@H]1C2', '%', 82),
  ('C[C@H]1[C@H](N2C(=O)c3c(F)ccc(F)c3C2=O)C[C@@H]2C[C@H]1C2(C)C', '%', 77),
  ('O=C1c2c(F)ccc(F)c2C(=O)N1C1CC2CCC1C2 (stereo not drawn) [Compound 22]', '%', 87),
  ('CC1(C)[C@@H]2CC[C@@]1(C)[C@@H](N1C(=O)c3c(F)ccc(F)c3C1=O)C2', '%', 98),
  ('O=C1c2c(F)ccc(F)c2C(=O)N1C1CC2CCC1C2 (stereo not drawn) [Compound 21]', '%', 90),
  ('C[C@@H]1[C@@H](N2C(=O)c3c(F)ccc(F)c3C2=O)C[C@H]2C[C@@H]1C2(C)C', '%', 89);

----------
- Test system: RAW 264.7 cells
- ASSAY_COMMENT: Cell viability of drug treated RAW 264.7 cells (CellTiter 96 AQueous One, MTS)
- ASSAY_CONTEXT: 10 μM; RAW 264.7 cells; percentage of vehicle control value; mean ± S.E.M., n = 3
MEASURE_NAME: Cell Viability % Δ (%)

INSERT INTO assay_data (compound, measure_name, readout_unit, experimental_value) VALUES
  ('C[C@@H]1[C@@H](N2C(=O)c3c(F)ccc(F)c3C2=O)C[C@H]2C[C@@H]1C2(C)C [Compound 18]', 'Cell Viability % Δ', '%', 76),
  ('CC1(C)[C@H]2CC[C@@H](CN3C(=O)c4c(F)ccc(F)c4C3=O)[C@@H]1C2 [Compound 19]', 'Cell Viability % Δ', '%', 93),
  ('CC1(C)[C@@H]2CC[C@@]1(C)[C@@H](N1C(=O)c3c(F)ccc(F)c3C1=O)C2 [Compound 20]', 'Cell Viability % Δ', '%', 98),
  ('C[C@H]1[C@H](N2C(=O)c3c(F)ccc(F)c3C2=O)C[C@@H]2C[C@H]1C2(C)C [Compound 17]', 'Cell Viability % Δ', '%', 81);

----------
- Tested on: RAW 264.7 cells
- ASSAY_COMMENT: Cell viability of drug treated RAW 264.7 cells (CellTiter 96 AQueous One, MTS)
- ASSAY_CONTEXT: 10 uM; LPS-activated RAW 264.7 cells (Table 9)
MEASURE_NAME: Viability, % Change versus Control (± s.e.m.)

INSERT INTO results (compound, experimental_value) VALUES
  ('Nc1cccc2c1C(=O)N(C1CCC(=O)NC1=O)C2=O (stereo not drawn)', '95 ± 1.2 (N.S.) %'),
  ('Nc1c(F)ccc2c1C(=S)N(C1CCC(=S)NC1=O)C2=O (stereo not drawn) [drawing 94]', '92 ± 1.6 (N.S.) %'),
  ('Nc1c(F)ccc2c1C(=O)N(C1CCC(=O)NC1=O)C2=O (stereo not drawn) [drawing 93]', '90 ± 2.6 (N.S.) %'),
  ('Nc1ccc(F)c2c1C(=O)N(C1CCC(=O)NC1=O)C2=O (stereo not drawn) [drawing 91]', '102 ± 0.8 (N.S.) %'),
  ('Nc1cccc2c1C(=S)N(C1CCC(=S)NC1=O)C2=O (stereo not drawn) [drawing 90]', '92 ± 1.8 (N.S.) %'),
  ('Nc1ccc(F)c2c1C(=S)N(C1CCC(=S)NC1=O)C2=O (stereo not drawn) [drawing 92]', '95 ± 3.0 (N.S.) %');

----------
- Tested on: TNF-α
- ASSAY_COMMENT: LPS-induced TNF-α production in RAW 264.7 cells (ELISA)
- Assay type: cell-based, mouse
- ASSAY_CONTEXT: 1 μM; LPS-challenged RAW 264.7 cells; percentage of vehicle control value (control = 100%); mean ± S.E.M., n = 3
MEASURE_NAME: TNF-α % Δ (%)

INSERT INTO results (compound, experimental_value) VALUES
  ('O=C1c2c(F)c(F)c(F)c(F)c2C(=O)N1C1CC2CCC1C2 (centres unmarked) [Compound 15]', 71),
  ('O=C1c2c(F)ccc(F)c2C(=O)N1C1CC2CCC1C2 (centres unmarked) [Compound 21]', 90),
  ('C[C@H]1[C@H](N2C(=O)c3c(F)c(F)c(F)c(F)c3C2=O)C[C@@H]2C[C@H]1C2(C)C', 76),
  ('CC1(C)[C@H]2CC[C@@H](CN3C(=O)c4c(F)c(F)c(F)c(F)c4C3=O)[C@@H]1C2', 62),
  ('C[C@@H]1[C@@H](N2C(=O)c3c(F)c(F)c(F)c(F)c3C2=O)C[C@H]2C[C@@H]1C2(C)C', 56),
  ('CC1(C)[C@@H]2CC[C@@]1(C)[C@@H](N1C(=O)c3c(F)ccc(F)c3C1=O)C2', 100),
  ('C[C@H]1[C@H](N2C(=O)c3c(F)ccc(F)c3C2=O)C[C@@H]2C[C@H]1C2(C)C', 95),
  ('O=C1c2c(F)c(F)c(F)c(F)c2C(=O)N1C1CC2CCC1C2 (centres unmarked) [Compound 16]', 74);

----------
- Test system: LPS-induced nitrite in RAW 264.7 cells
- ASSAY_COMMENT: LPS-induced nitrite production in RAW 264.7 cells (Griess reagent / fluorometric kit)
- Assay type: cell-based, mouse
- ASSAY_CONTEXT: 10 μM; LPS-challenged RAW 264.7 cells; percentage of vehicle control value (control = 100%); mean ± S.E.M., n = 3
MEASURE_NAME: nitrite level, % of vehicle control (%)

INSERT INTO results (compound, target, measure_name, readout_unit, experimental_value) VALUES
  ('O=C1c2c(F)ccc(F)c2C(=O)N1C1CC2CCC1C2 (stereo not drawn) [Compound 21]', 'LPS-induced nitrite in RAW 264.7 cells', 'nitrite level, % of vehicle control', '%', 127),
  ('CC1(C)[C@@H]2CC[C@@]1(C)[C@@H](N1C(=O)c3c(F)ccc(F)c3C1=O)C2 [Compound 20]', 'LPS-induced nitrite in RAW 264.7 cells', 'nitrite level, % of vehicle control', '%', 78),
  ('C[C@@H]1[C@@H](N2C(=O)c3c(F)ccc(F)c3C2=O)C[C@H]2C[C@@H]1C2(C)C [Compound 18]', 'LPS-induced nitrite in RAW 264.7 cells', 'nitrite level, % of vehicle control', '%', 71),
  ('O=C1c2c(F)ccc(F)c2C(=O)N1C1CC2CCC1C2 (stereo not drawn) [Compound 22]', 'LPS-induced nitrite in RAW 264.7 cells', 'nitrite level, % of vehicle control', '%', 104),
  ('C[C@H]1[C@H](N2C(=O)c3c(F)ccc(F)c3C2=O)C[C@@H]2C[C@H]1C2(C)C [Compound 17]', 'LPS-induced nitrite in RAW 264.7 cells', 'nitrite level, % of vehicle control', '%', 54),
  ('CC1(C)[C@H]2CC[C@@H](CN3C(=O)c4c(F)ccc(F)c4C3=O)[C@@H]1C2 [Compound 19]', 'LPS-induced nitrite in RAW 264.7 cells', 'nitrite level, % of vehicle control', '%', 63);

----------
- Test system: RAW 264.7 cells
- ASSAY_COMMENT: Cell viability of drug treated RAW 264.7 cells (CellTiter 96 AQueous One, MTS)
- ASSAY_CONTEXT: 10 uM; LPS-activated RAW 264.7 cells
MEASURE_NAME: Viability, % Change versus Control (± s.e.m.) (%)

INSERT INTO assay_data (compound, readout_unit, experimental_value) VALUES
  ('CC(C)Nc1ccc(F)c2c1C(=O)N(C1CCC(=O)NC1=O)C2=O (centres unmarked)', '%', 99.9),
  ('CC(C)Nc1ccc(F)c2c1C(=S)N(C1CCC(=S)NC1=O)C2=O (centres unmarked)', '%', 74.1),
  ('Nc1ccc(F)c2c1C(=O)N(C1CCC(=S)NC1=O)C2=O (centres unmarked)', '%', 112.4),
  ('Nc1ccc(F)c2c1C(=O)N(C1CCC(=O)NC1=O)C2=O (centres unmarked)', '%', 100.9),
  ('CC(C)Nc1ccc(F)c2c1C(=O)N(C1CCC(=S)NC1=O)C2=O (centres unmarked)', '%', 112.3);
